Data provenance: patent US20110200533A1

- target under test: T1, recombinant human VCAM-1/Fc chimera (human, UniProt P19320 25-698)
- T1 construct: The cell adhesion assay says only 'the VCAM-1 protein'; also called VCAM-1 molecule; VCAM-1 protein; not shown: Fc part of the chimera
- T1 sequence (looked up): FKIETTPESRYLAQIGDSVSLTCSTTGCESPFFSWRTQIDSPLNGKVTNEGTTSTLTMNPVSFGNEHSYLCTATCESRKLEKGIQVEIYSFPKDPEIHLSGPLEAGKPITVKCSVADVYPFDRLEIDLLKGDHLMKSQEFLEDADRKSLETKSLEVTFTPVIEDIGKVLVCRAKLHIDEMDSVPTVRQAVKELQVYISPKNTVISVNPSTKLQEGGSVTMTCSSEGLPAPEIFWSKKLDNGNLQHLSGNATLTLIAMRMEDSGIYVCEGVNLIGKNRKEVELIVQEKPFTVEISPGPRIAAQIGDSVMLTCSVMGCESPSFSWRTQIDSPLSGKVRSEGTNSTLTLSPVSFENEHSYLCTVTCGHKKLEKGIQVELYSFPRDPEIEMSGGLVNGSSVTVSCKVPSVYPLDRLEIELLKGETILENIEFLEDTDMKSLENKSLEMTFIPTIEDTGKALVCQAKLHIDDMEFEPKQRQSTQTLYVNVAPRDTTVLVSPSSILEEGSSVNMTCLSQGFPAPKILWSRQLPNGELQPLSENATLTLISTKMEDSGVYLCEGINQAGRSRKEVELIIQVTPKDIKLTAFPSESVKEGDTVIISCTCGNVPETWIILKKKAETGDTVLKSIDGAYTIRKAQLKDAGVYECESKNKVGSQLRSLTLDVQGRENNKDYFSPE
- assay protocol: ELISA: peptide immobilized on the plate, VCAM-1/Fc at increasing concentrations (3.9×10^-9-4.9×10^-7 M), detected with a mouse anti-human VCAM-1 mAb; apparent Kd
pKd: −log10 of the molar value. Ends that are not written are not given here.

binder	pKd
CNNSKSHTC (not fully specified (bridges); also: cyclic, type of ring bond not given here, also called VCAM PEPTIDE) [cyclic peptide CNNSKSHTC (SEQ ID No. 2)]	6.87
